Value source: patent US10047105B2

System: S. aureus ATCC 13709
Assay: MIC, antibacterial potency, S. aureus
Format: cell-based
Conditions: S. aureus (SA); in µg/mL
Quantity: MIC, SA

# Compound, Tested target, MIC, SA
rows = [
    ("CCc1[nH]c2nc(Oc3ccc4nccnc4c3)nc(N3CC[C@@H](N)C3)c2c1Cl", "S. aureus ATCC 13709", 4),
    ("CCc1[nH]c2nc(Oc3cnc4ccoc4c3)nc(Oc3cnc4ccoc4c3)c2c1Br", "S. aureus ATCC 13709", "<=0.5"),
    ("CCc1[nH]c2nc(Sc3ccc4nccnc4c3)nc(N3CC[C@@H](N)C3)c2c1Cl", "S. aureus ATCC 13709", "<=0.5"),
    ("CCc1[nH]c2nc(Sc3cnc4nccnc4c3)nc(N3CCC(CN4CCCC4=O)CC3)c2c1Cl", "S. aureus ATCC 13709", 2),
    ("CCc1[nH]c2nc(Sc3cnc4c(c3)c(=O)ncn4C)nc(N3CC4C(N)C4C3)c2c1Cl (centres unmarked)", "S. aureus ATCC 13709", "<=0.5"),
    ("CCc1[nH]c2nc(Sc3cnc4nccnc4c3)nc(N3CCC4CN[C@H]4C3)c2c1Cl (some centres unmarked)", "S. aureus ATCC 13709", "<=0.5"),
    ("CCc1[nH]c2nc(Oc3cncnc3)nc(Oc3cc(O)cc(C#N)c3)c2c1Br [701,249]", "S. aureus ATCC 13709", "<=0.5"),
    ("CCc1[nH]c2nc(Sc3cnc4nccnc4c3)nc(N3CC(CNC(=O)C4CNC4)C3)c2c1Cl", "S. aureus ATCC 13709", 8),
    ("N[C@@H]1CCN(c2nc(Sc3cnc4cccnc4c3)nc3[nH]c(C4CC4)c(Cl)c23)C1", "S. aureus ATCC 13709", 8),
    ("CCc1[nH]c2nc(Oc3cncnc3)nc(N3CCC(N)C3)c2c1Cl (centres unmarked)", "S. aureus ATCC 13709", ">64"),
]

The record that follows has no MIC, SA shown yet.
Quick one: MIC, SA of CCc1[nH]c2nc(Sc3cnc4cccnc4c3)nc(N3CC4C(N)C4C3)c2c1C (centres unmarked) ? <=0.5
